Recorded GI50 values (CCRF-CEM leukemia) are given below.

Please review the following examples before continuing.
COMPOUND	GI50
CC/C=C\C[C@H](O)C/C=C1/C(=O)C=C[C@@H]1C/C=C\CCCC(N)=O	1380 nM
O=C(Nc1ccc(Br)cc1)c1cc(Br)cc(Br)c1O	3730 nM
COc1ccc(-c2cn3ccnc3c(-c3ccc4ncn(C5CCCCC5)c4c3)n2)cc1	1640 nM

Param readout= GI50; system= CCRF-CEM leukemia; entry= C=C(CNCCO)[C@@H]1CC[C@]2(CO)CC[C@]3(C)[C@H](CC[C@@H]4[C@@]5(C)CCC(NCCc6ccc(O)cc6)C(C)(C)[C@@H]5CC[C@]43C)[C@@H]12 (some centres undefined) ; returns value. 500 nM
